Quick reference for hydrocodone plus hydromorphone concentration among some compounds
ASSAY NAME: Oral bioavailability of hydrocodone conjugates in rats, LC/MS/MS
CONDITION SUMMARY: oral, 5 mg/kg dose, 8 Hours
Where a SMILES comes first, the peptide text is derived from it. The star is where a group is joined. X1 = COc1ccc2c3c1O[C@H]1C(O*)=CC[C@H]4[C@@H](C2)N(C)CC[C@]314
Answer format: numeric, ng/mL implied, no suffix.

Example entries begin here.
[
  {
    "COMPOUND": "CC[C@H](C)[C@H](NC(=O)[C@H](Cc1ccc(O)cc1)NC(=O)[C@@H](N)Cc1ccc(O)cc1)C(=O)OC1=CC[C@H]2[C@H]3Cc4ccc(OC)c5c4[C@@]2(CCN3C)[C@H]1O5 [YYI-HC, Tyr-Tyr-Ile-Hydrocodone]",
    "REPORTED VALUE": 2.7
  },
  {
    "COMPOUND": "CC[C@H](C)[C@H](NC(=O)[C@H](Cc1ccccc1)NC(=O)[C@H](Cc1ccccc1)NC(=O)[C@H](Cc1ccc(O)cc1)NC(=O)[C@@H](N)Cc1ccc(O)cc1)C(=O)OC1=CC[C@H]2[C@H]3Cc4ccc(OC)c5c4[C@@]2(CCN3C)[C@H]1O5 [YYFFI[SEQ ID NO: 8]-HC] (H-YYFFI-X1)",
    "REPORTED VALUE": 4.5
  },
  {
    "COMPOUND": "CC[C@H](C)[C@H](NC(=O)[C@H](Cc1ccccc1)NC(=O)[C@H](Cc1ccccc1)NC(=O)[C@H](CCC(=O)O)NC(=O)[C@@H](N)CCC(=O)O)C(=O)OC1=CC[C@H]2[C@H]3Cc4ccc(OC)c5c4[C@@]2(CCN3C)[C@H]1O5 [EEFFI[SEQ ID NO: 5]-HC] (H-EEFFI-X1)",
    "REPORTED VALUE": 4.5
  }
]

Okay, now this compound:
[Q] Kindly indicate its recorded hydrocodone plus hydromorphone concentration. Item: CC[C@H](C)[C@H](NC(=O)[C@H](CC(=O)O)NC(=O)[C@@H](N)CC(=O)O)C(=O)OC1=CC[C@H]2[C@H]3Cc4ccc(OC)c5c4[C@@]2(CCN3C)[C@H]1O5 [DDI-HC, Asp-Asp-Ile-Hydrocodone]
[A] 3.1

====

ASSAY NAME: Oral bioavailability of hydrocodone conjugates in rats, LC/MS/MS
CONDITION SUMMARY: oral, 1 mg/kg dose, 8 Hours
Where a SMILES comes first, the peptide text is derived from it. The star is where a group is joined. X1 = COc1ccc2c3c1O[C@H]1C(O*)=CC[C@H]4[C@@H](C2)N(C)CC[C@]314
QUANTITY MEASURED: hydrocodone plus hydromorphone concentration (ng/mL)
Answer format: numeric, ng/mL implied, no suffix.

Example entries begin here.
[
  {
    "COMPOUND": "CC[C@H](C)[C@H](NC(=O)[C@H](CC(=O)O)NC(=O)[C@@H](N)CC(=O)O)C(=O)OC1=CC[C@H]2[C@H]3Cc4ccc(OC)c5c4[C@@]2(CCN3C)[C@H]1O5 [DDI-HC, Asp-Asp-Ile-Hydrocodone]",
    "MEASURE UNIT": "ng/mL",
    "REPORTED VALUE": 0
  },
  {
    "COMPOUND": "COc1ccc2c3c1O[C@H]1C(OC(=O)[C@H](Cc4ccccc4)NC(=O)[C@H](Cc4ccccc4)NC(=O)[C@H](Cc4ccccc4)NC(=O)[C@H](CCC(=O)O)NC(=O)[C@@H](N)CCC(=O)O)=CC[C@H]4[C@@H](C2)N(C)CC[C@]314 [EEFFF[SEQ ID NO: 3]-HC] (H-EEFFF-X1)",
    "MEASURE UNIT": "ng/mL",
    "REPORTED VALUE": 1.2
  },
  {
    "COMPOUND": "CC[C@H](C)[C@H](NC(=O)[C@H](Cc1ccc(O)cc1)NC(=O)[C@@H](N)Cc1ccc(O)cc1)C(=O)OC1=CC[C@H]2[C@H]3Cc4ccc(OC)c5c4[C@@]2(CCN3C)[C@H]1O5 [YYI-HC, Tyr-Tyr-Ile-Hydrocodone]",
    "MEASURE UNIT": "ng/mL",
    "REPORTED VALUE": 1.8
  }
]

[Q] Kindly indicate its recorded hydrocodone plus hydromorphone concentration. Item: CC[C@H](C)[C@H](NC(=O)[C@H](Cc1ccccc1)NC(=O)[C@H](Cc1ccccc1)NC(=O)[C@H](CCC(=O)O)NC(=O)[C@@H](N)CCC(=O)O)C(=O)OC1=CC[C@H]2[C@H]3Cc4ccc(OC)c5c4[C@@]2(CCN3C)[C@H]1O5 [EEFFI[SEQ ID NO: 5]-HC] (H-EEFFI-X1)
[A] 1.6

[Q] Kindly indicate its recorded hydrocodone plus hydromorphone concentration. Item: CC[C@H](C)[C@H](NC(=O)[C@H](Cc1ccccc1)NC(=O)[C@H](Cc1ccccc1)NC(=O)[C@H](Cc1ccc(O)cc1)NC(=O)[C@@H](N)Cc1ccc(O)cc1)C(=O)OC1=CC[C@H]2[C@H]3Cc4ccc(OC)c5c4[C@@]2(CCN3C)[C@H]1O5 [YYFFI[SEQ ID NO: 8]-HC] (H-YYFFI-X1)
[A] 0
